- Organism: Rattus norvegicus
- assay protocol: Open TG-GATES - Regimen: Daily Repeat
- Assay type: toxicity, organism-based, Sprague-Dawley
- Design: regimen Daily Repeat, gender Male, age 6 weeks
- measurement conditions: in vivo, po, 300 mg/kg, […], tissue Blood, route gavage, dose level Middle, time 28 day
Mark fulfilled only for Mono values smaller than 2%; exact matches and larger values are not fulfilled.

CCOc1ccc(NC(C)=O)cc1 ... fulfilled
COC(=O)C1=C(C)NC(C)=C(C(=O)OC)C1c1ccccc1[N+](=O)[O-] ... not fulfilled

Prompt line: Check if Mono falls below 2% for CN/C(=N/CCSCc1nc[nH]c1C)NC#N .
Response line: not fulfilled

Prompt line: Check if Mono falls below 2% for Cc1nnc2n1-c1ccc(Cl)cc1C(c1ccccc1Cl)=NC2 .
Response line: fulfilled

Prompt line: Check if Mono falls below 2% for O=C(OC[C@H]1O[C@@H](OC(=O)c2cc(O)c(O)c(OC(=O)c3cc(O)c(O)c(O)c3)c2)[C@H](OC(=O)c2cc(O)c(O)c(OC(=O)c3cc(O)c(O)c(O)c3)c2)[C@@H](OC(=O)c2cc(O)c(O)c(OC(=O)c3cc(O)c(O)c(O)c3)c2)[C@@H]1OC(=O)c1cc(O)c(O)c(OC(=O)c2cc(O)c(O)c(O)c2)c1)c1cc(O)c(O)c(OC(=O)c2cc(O)c(O)c(O)c2)c1 .
Response line: not fulfilled

Prompt line: Check if Mono falls below 2% for CNC(=C[N+](=O)[O-])NCCSCc1ccc(CN(C)C)o1 .
Response line: fulfilled
